Tested on: KRAS PDC multicell spheroid viability;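 also: drug exposure lasted seven days; 100% = DMSO vehicle wells and lower means fewer viable cells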
Test: Anticancer human tumor 521955-158-R6-J3-PDC patient-derived pancreatic carcinoma cell line growth inhibition [KRAS2]
Details: second compound 0.316 µM; first compound 0.316 µM; stronger effect = lower value
From the text: Multicellular complex tumor spheroid response to RAS pathway inhibitors in combination with a targeted agents in patient-derived cell lines with oncogenic KRAS variants from multiple cancer types A high-throughput screen of multi-cell type tumor spheroids was designed to identify active combinations of targeted small molecules and KRAS pathway inhibitors. […] Compounds. […] If the clinical Cmax for an agent had not been determined, the highest concentration tested was 10 microM. […]
Property: viability, T/C; scope: individual compounds
Please respond with the number in % and leave the unit unwritten.

For orientation, consider the following solved cases.
compound	measured.target	viability, T/C (%)
CC1(C)CCC(CN2CCN(c3ccc(C(=O)NS(=O)(=O)c4ccc(NCC5CCOCC5)c([N+](=O)[O-])c4)c(Oc4cnc5[nH]ccc5c4)c3)CC2)=C(c2ccc(Cl)cc2)C1 + COc1cc2nc(C)nc(NC(C)c3cc(N)cc(C(F)(F)F)c3)c2cc1OC1CCOC1	KRAS PDC multicell spheroid viability	95.7
COc1cc(Nc2ncc3c(n2)-c2ccc(Cl)cc2C(c2c(F)cccc2OC)=NC3)ccc1C(=O)O + CNCc1ccccc1-c1csc(C(C)Nc2nc(C)nc3cc(OC)c(OC)cc23)c1	KRAS PDC multicell spheroid viability	90.9

Please find the next compound below.
According to the records, this compound CC1OCC2(CCN(c3cnc(Sc4ccnc(N)c4Cl)c(N)n3)CC2)C1N (stereo not drawn) + C=CC(=O)N1CCN(c2nc(OCC3CCCN3C)nc3c2CCN(c2cccc4cccc(C)c24)C3)CC1CC#N displays viability, T/C of 85

Cited source: PubChem BioAssay AID1963864
